Catalogue of abundance fitness readings, one per entry.
B1: Zinc finger MYM-type protein 2, residues 463 to 506; numbered along this chain, Q9UBW7 (parent)
chain: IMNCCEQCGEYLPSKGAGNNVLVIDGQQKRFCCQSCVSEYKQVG

- Variants of: B1
- procedure.details: abundance fitness (aPCA) (normalised: wild type 0, dead -1); higher = more abundant; growth selection in yeast, the domain comes from the species named
- particulars: Homo sapiens

>  <variant.description>
C4W

>  <abundance fitness>
-0.242

$$$$
>  <variant.description>
Q34I

>  <abundance fitness>
-0.448

$$$$
>  <variant.description>
C33F

>  <abundance fitness>
-0.517

$$$$
>  <variant.description>
C8A

>  <abundance fitness>
-0.505

$$$$
>  <variant.description>
C36Q

>  <abundance fitness>
-0.201

$$$$
>  <variant.description>
E6V

>  <abundance fitness>
-0.256

$$$$
>  <variant.description>
G9K

>  <abundance fitness>
-0.511

$$$$
>  <variant.description>
G9Y

>  <abundance fitness>
0.102

$$$$
>  <variant.description>
L12C

>  <abundance fitness>
-0.384

$$$$
>  <variant.description>
N3D

>  <abundance fitness>
-0.045

$$$$
>  <variant.description>
L22W

>  <abundance fitness>
-0.187

$$$$
>  <variant.description>
V21N

>  <abundance fitness>
-0.397

$$$$
>  <variant.description>
I1W

>  <abundance fitness>
-0.746

$$$$
>  <variant.description>
Q28V

>  <abundance fitness>
-0.169

$$$$
>  <variant.description>
C5G

>  <abundance fitness>
-0.7

$$$$
